Attribution: patent US20250084080A1

assay: Solubility at 37° C. in buffers and biorelevant media, XRPD of residual solid; format: physicochemical; details: thermodynamic from solid; pH 1.2 HCl buffer, pH 1.6 FaSSGF and pH 5.0 FeSSIF-v1, 37° C.
RECORDED ENDPOINT: solubility

Record CCOc1cc(C(=O)N(C)Cc2cnc(CO)c3cn[nH]c23)ccc1-c1cc(F)cc(F)c1 [Free form Pattern B] . Reported solubility: 100 to 600 µg/mL

====

test: Hygroscopicity by dynamic vapor sorption (DVS) at 25° C.; format: physicochemical; settings: DVS 25° C., 0% RH, 1st desorption
Reported Desorp. (%) values for a set of molecules
The figure you give is taken to be in %; do not add the unit.

Worked cases, Desorp. (%) given:
CCOc1cc(C(=O)N(C)Cc2cnc(CO)c3cn[nH]c23)ccc1-c1cc(F)cc(F)c1 [Free form Pattern A]; 0.01
CCOc1cc(C(=O)N(C)Cc2cnc(CO)c3cn[nH]c23)ccc1-c1cc(F)cc(F)c1.Cl [HCl salt Pattern A]; 0.51
CCOc1cc(C(=O)N(C)Cc2cnc(CO)c3cn[nH]c23)ccc1-c1cc(F)cc(F)c1.O=P(O)(O)O [Phosphate salt Pattern A]; 0.03

Now examine the next entry.
Record CCOc1cc(C(=O)N(C)Cc2cnc(CO)c3cn[nH]c23)ccc1-c1cc(F)cc(F)c1.[Na] [Sodium salt Pattern A] . Reported Desorp. (%): 0.05
